- experiment: Biodistribution in baboon heart at 170 mg, iv after 30 mins
- Type: ADME, organism-based
- run parameters: papio hamadryas, read-out: Drug uptake
endpoint name: concentration at 0.5 h (ng/mL)
// return numeric value only (unit: ng/mL, not printed)

Recorded concentration at 0.5 h (compound CO[C@H]1/C=C/O[C@@]2(C)Oc3c(C)c(O)c4cc(c(/C=N/N5CCN([11CH3])CC5)c(O)c4c3C2=O)NC(=O)/C(C)=C\C=C\C(C)[C@H](O)[C@@H](C)[C@@H](O)[C@@H](C)[C@H](OC(C)=O)[C@@H]1C (stereo partly specified) ): 5280

###

- experiment: Biodistribution in baboon heart at 340 mg, iv after 30 mins
- Assay type: ADME, organism-based
- run parameters: papio hamadryas, read-out: Drug uptake
endpoint name: concentration at 0.5 h (µg/mL)
// return numeric value only (unit: µg/mL, not printed)

Recorded concentration at 0.5 h (compound "N[11C](=O)c1cnccn1" ): 61.5
